Test system: HCC-2998 colon
Experiment: NCI tumour cell line growth inhibition, 48 h
I would appreciate it if you labelled entries met when TGI is 30 µM or higher, otherwise not met.

NC(=O)N/N=C(\Cc1cc(=O)oc2cc(O)ccc12)C(=O)Nc1ccccc1C(N)=O :: met
CCCCCOC(=O)c1c(C)[nH]c(/C=C2\N=C(c3ccc[nH]3)C=C2OC)c1C :: not met
Cc1ccc2[nH]c3c(c2c1)C1CCC(C(C)(C)C)CC1C1C(=O)N(c2ccc(Oc4ccccc4)cc2)C(=O)C31 (stereo not drawn) :: met
CC(C)N1CCOC(c2ccc(O)c(O)c2)C1 (stereo not drawn) :: met
COC(=O)C1=C(C(=O)OC)C23CC4CCC2(C(=O)C1O3)C4(C)C (stereo not drawn) :: met
O=S(=O)(O)c1cc(O)c(N=NC2S(=O)(=O)OCCOS2(=O)=O)c2ccccc12 :: met
O=C(c1ccccc1)c1nc2ccc(Cl)cc2cc1C(Br)Br :: not met
Clc1ccc(NCNC2Nc3ccccc3N2)cc1Cl :: met
CCN(CC)CC(C(=O)Nc1c(C)cccc1C)/C(C)=N\NC(=S)NN (stereo not drawn) :: met
O=C(O)c1c2c(c(O)c3c1CN(C1CCCCC1)CO3)OCN(C1CCCCC1)C2 :: met
CCCCOc1ccc(/C=C/C2=[N+](CCO)CCO2)cc1 :: met
Cc1ccc(S(=O)(=O)N(CC(O)COc2ccccc2)c2c(F)c(F)c(F)c(F)c2F)cc1 (stereo not drawn) :: met
